test system: UWB1.289 Cells; assay: Cell activity assay (CellTiterGlo, 6 days), BRCA1 gene-deficient ovarian cancer cells UWB1.289; assay type: cell-based; settings: UWB1289, 144 h, BRCA1 gene-deficient ovarian cancer cells UWB1.289, 6 days incubation
quantityKind: IC50 (nM)

CNC(=O)c1c(=O)c2ccc(N3CCCN(C)CC3)nc2n2c1sc1ccccc12; 39.8
CN1CCCN(c2ccc3c(=O)c(C(=O)NCCN4CCCC4)c4sc5ccccc5n4c3n2)CC1; 5.8
CN1CCCN(c2ccc3c(=O)c(C(=O)NCc4ccc(=O)[nH]n4)c4sc5ccccc5n4c3n2)CC1; 40.4

I = CN1CCCN(c2ccc3c(=O)c(C(=O)NC4CC4)c4sc5ccccc5n4c3n2)CC1
II = CN1CCCN(c2ccc3c(=O)c(C(=O)NCCN4CCC4)c4sc5ccccc5n4c3n2)CC1
III = O=C(c1cc(Cc2n[nH]c(=O)c3ccccc23)ccc1F)N1CCN(C(=O)C2CC2)CC1 [Olaparib, reference compound]
Endpoint returns the given compounds ordered by ascending IC50. Give me the labels in the order the question wants.
II, I, III

###

In this section, each of the molecules is paired with its reported pIC50.
molecular target: hERG (Homo sapiens, UniProt Q12809); assay: hERG cardiotoxicity assay (patch clamp, hERG stably expressed HEK 293 cell line); conditions: 5 doses applied cumulatively
Sequence (Q12809 whole entry): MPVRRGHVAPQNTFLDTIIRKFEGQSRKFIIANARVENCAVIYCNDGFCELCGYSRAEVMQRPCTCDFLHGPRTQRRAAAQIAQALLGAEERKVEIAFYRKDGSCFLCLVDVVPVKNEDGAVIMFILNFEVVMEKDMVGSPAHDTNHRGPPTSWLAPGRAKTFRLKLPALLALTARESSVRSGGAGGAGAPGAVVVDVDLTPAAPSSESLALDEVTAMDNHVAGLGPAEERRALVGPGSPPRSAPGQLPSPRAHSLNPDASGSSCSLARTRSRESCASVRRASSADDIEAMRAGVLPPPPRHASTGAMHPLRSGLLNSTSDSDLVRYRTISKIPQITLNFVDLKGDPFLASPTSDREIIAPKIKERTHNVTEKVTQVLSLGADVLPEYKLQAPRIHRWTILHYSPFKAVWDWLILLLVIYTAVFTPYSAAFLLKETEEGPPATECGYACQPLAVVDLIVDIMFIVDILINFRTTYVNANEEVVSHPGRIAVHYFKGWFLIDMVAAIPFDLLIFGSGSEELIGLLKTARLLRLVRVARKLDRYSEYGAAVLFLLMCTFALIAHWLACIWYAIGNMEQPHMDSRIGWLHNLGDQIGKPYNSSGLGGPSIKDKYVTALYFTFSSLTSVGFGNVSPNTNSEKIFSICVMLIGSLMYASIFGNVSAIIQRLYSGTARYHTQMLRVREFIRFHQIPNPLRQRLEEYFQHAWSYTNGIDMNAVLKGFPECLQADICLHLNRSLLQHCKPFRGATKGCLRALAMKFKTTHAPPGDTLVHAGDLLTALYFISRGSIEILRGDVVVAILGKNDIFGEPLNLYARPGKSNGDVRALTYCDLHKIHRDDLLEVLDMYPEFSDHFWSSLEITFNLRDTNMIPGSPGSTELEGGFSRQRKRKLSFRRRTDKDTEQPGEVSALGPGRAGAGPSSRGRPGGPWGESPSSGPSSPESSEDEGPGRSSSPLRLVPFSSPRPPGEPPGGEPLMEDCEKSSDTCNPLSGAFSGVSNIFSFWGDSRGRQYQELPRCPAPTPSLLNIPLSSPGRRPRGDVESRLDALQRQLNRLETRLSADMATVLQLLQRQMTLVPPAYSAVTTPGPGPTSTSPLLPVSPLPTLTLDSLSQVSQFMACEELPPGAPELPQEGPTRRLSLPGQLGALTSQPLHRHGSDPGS
pIC50: −log10 of the molar value.

Would you please look over these solved cases?
CN1CCCN(c2ccc3c(=O)c(C(=O)NCc4n[nH]c(=O)c5ccccc45)c4sc5ccccc5n4c3n2)CC1; < 5.00
CN1CCCN(c2ccc3c(=O)c(C(=O)NCc4ccc(=O)[nH]n4)c4sc5ccccc5n4c3n2)CC1; < 4.52

Kindly review the next molecule as well.
Look up pIC50 for this molecule: Cc1cnc(CNC(=O)c2c(=O)c3ccc(N4CCCN(C)CC4)nc3n3c2sc2ccccc23)cn1
5.30
